Provide the recorded EC50 for the entries that follow.
tgt: GLP-1R (Homo sapiens)
Sequence (P43220 24-463): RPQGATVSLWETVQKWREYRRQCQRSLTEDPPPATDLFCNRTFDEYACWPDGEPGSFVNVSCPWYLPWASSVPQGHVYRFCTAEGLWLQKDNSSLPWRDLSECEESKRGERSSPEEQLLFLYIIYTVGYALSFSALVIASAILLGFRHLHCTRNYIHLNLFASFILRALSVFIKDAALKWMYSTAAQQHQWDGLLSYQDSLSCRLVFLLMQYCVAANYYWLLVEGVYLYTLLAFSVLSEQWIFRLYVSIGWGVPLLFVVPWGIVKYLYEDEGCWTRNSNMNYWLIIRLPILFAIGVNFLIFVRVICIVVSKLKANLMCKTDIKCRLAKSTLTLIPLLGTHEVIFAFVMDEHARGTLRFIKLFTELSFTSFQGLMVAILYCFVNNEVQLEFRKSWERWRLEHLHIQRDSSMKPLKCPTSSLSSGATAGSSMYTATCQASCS
assay-details: GLP-1R activation: cAMP increase in CHO cells stably expressing GLP-1R
Assay type: cell-based
protocol-conditions: cAMP increase, CHO cells stably expressing GLP-1R, 10 point dose response, 30 minutes incubation; read-out: EC50
One number for each entry, in nM.

>  <compound>
N#Cc1ccc(COc2cccc(-c3cc(F)c(Cc4nc5ccc(C(=O)O)cc5n4C[C@@H]4CC(F)(F)CO4)cc3F)n2)c(F)c1 (racemic)

>  <display-unit>
nM

>  <experimental-value>
0.89

$$$$
>  <compound>
CC(C)n1c(Cc2ccc(-c3cccc(OCc4ccc(C#N)cc4F)n3)cc2F)nc2ccc(C(=O)O)cc21

>  <display-unit>
nM

>  <experimental-value>
92.6

$$$$

Give EC50 for each of the items listed below.
1. N#Cc1ccc(COc2nccc(-c3ccc(Cc4nc5ccc(C(=O)O)nc5n4CC4(CF)CC4)cc3F)n2)c(F)c1
2. COCCn1c(Cc2c(F)cc(-c3ccnc(OCc4ccc(C#N)cc4F)n3)c(F)c2F)nc2ccc(C(=O)O)cc21
3. N#Cc1ccc(COc2cccc(-c3ccc(Cc4nc5ccc(C(=O)O)cc5n4C[C@H]4CCS4(=O)=O)cc3)n2)c(F)c1 (racemic)
4. COCCn1c(Cc2ccc(-c3nc(OCc4ccc(C#N)cc4F)ccc3C#N)cc2F)nc2ccc(C(=O)O)cc21
5. N#Cc1ccc(COc2nc(-c3ccc(Cc4nc5ccc(C(=O)O)cc5n4C[C@@H]4CCO4)cc3)ccc2F)c(F)c1

Out:
1.21
1.71
325
291
0.65
